Target: Insulin receptor-related protein (Homo sapiens);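 note: each reported figure is the mean of the IRR inhibition readings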
Details: at 1 µM
Reported endpoint: inhibition (%)

[
  {
    "Structure": "CCn1c(-c2nonc2N)nc2c(C#CC(C)(C)O)nc(OCCNC)cc21",
    "System name": "Insulin receptor-related protein (Homo sapiens)",
    "Observed": 1.9
  },
  {
    "Structure": "NC(=O)c1cccc(Nc2nccc(Nc3cccc(F)c3)n2)c1",
    "System name": "Insulin receptor-related protein (Homo sapiens)",
    "Observed": 1.15
  },
  {
    "Structure": "CC(C)c1ccc2c(c1)NC(=O)/C2=N/Nc1ccc(S(N)(=O)=O)cc1",
    "System name": "Insulin receptor-related protein (Homo sapiens)",
    "Observed": -1.93
  }
]
